System: UACC-62
Assay: NCI tumour cell line growth inhibition, 48 h
The source made the active and inactive calls. Rule as the data show it: active = GI50 up to about 1.1 µM and inactive = higher.
Bench note: report the call from active, inactive

Write down the call the test reported for this compound. Item: CC1=CC(C)C(O)C(C)/C=C\C(O)C/C=C(/C)C(=O)CC(O)C(C)\C=C/C=C\C=C/C(=O)NC2=C(O)C(=O)c3c(cc(C)c(O)c3C1=O)C2=O (centres undefined)
inactive

Identify the outcome logged in this assay for the compound shown: `O=C(CCCn1ccnc1[N+](=O)[O-])NCCn1cncc1[N+](=O)[O-]`
inactive

Further cases:
Entry OC1[C@H](O)CN(OCc2ccccc2)C[C@@H]1O (some centres undefined) : call = ?
inactive

For Cc1ccc2c(O)c3c(cc2c1)C(=O)c1c2c(cc(O)c1C3=O)C1(C)OC(O2)C(O)C(N(C)C)C1O (centres undefined) , which call appears in the assay record?
active

Values compiled from ChEMBL document CHEMBL1201862.
